Some binders, each annotated with its measured EC50 (read off the curve).
Target: T1, Recombinant human MPL (human, UniProt P40238 26-491, limits assumed)
T1 construct: also called hu-mpl; hu-MPL
T1 sequence (looked up): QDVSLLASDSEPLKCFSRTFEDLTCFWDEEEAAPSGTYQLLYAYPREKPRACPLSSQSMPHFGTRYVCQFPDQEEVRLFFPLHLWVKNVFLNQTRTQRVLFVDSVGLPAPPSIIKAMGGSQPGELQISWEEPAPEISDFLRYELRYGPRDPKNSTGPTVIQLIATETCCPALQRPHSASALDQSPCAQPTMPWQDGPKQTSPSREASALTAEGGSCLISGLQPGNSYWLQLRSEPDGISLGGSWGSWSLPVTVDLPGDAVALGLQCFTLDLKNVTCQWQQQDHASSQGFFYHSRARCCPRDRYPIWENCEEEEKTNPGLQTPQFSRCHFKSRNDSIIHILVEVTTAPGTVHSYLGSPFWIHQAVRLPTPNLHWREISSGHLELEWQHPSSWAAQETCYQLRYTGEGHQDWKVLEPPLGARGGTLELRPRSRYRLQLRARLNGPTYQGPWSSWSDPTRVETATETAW
Test: phage ELISA titration: phagemid particles displaying the peptide, 5-fold dilution series (cfu/ul), on plate-coated recombinant human MPL, HRP-anti-M13 detection, chemiluminescent readout (Example 1, sections 4B and 5)
Ends that are not written are not given here.

## Task Which measured EC50 (read off the curve) value corresponds to QGGAREGPTLRQWLEWVRVGHS (two-residue caps at each end; also called TMP02) [TMP2 (22-residue capped peptide)] ?
## Result ~400000 cfu/ul

## Task Given QGRDLDGPTLRQWLPLPSVQHS (two-residue caps at each end; also called TMP03) [TMP3 (22-residue capped peptide)] , state its recorded EC50 (read off the curve).
## Result ~200000 cfu/ul

## Task What does the record list as EC50 (read off the curve) for QGCSSGGPTLREWLQCRRMQHS (not fully specified; cysteine pairing not given here, two-residue caps at each end; Two Cys) [TMP22 (22-residue capped peptide)] ?
## Result ~200000 cfu/ul

## Task What value of measured EC50 (read off the curve) is listed for QGCSWGGPTLKQWLQCVRAKHS (not fully specified; cysteine pairing not given here, two-residue caps at each end; Two Cys) [TMP23 (22-residue capped peptide)] ?
## Result ~100000 cfu/ul

## Task Query: EC50 (read off the curve); subject: QGALRDGPTLKQWLEYRRQAHS (two-residue caps at each end; also called TMP04) [TMP4 (22-residue capped peptide)]
## Result ~100000 cfu/ul

## Task Would you mind telling me what EC50 (read off the curve) value was observed for QGWCKEGPTLREWLRWGFLCHS (not fully specified; cysteine pairing not given here, two-residue caps at each end; Two Cys) [TMP21 (22-residue capped peptide)] ?
## Result ~800000 cfu/ul
